Experiment: Population pharmacokinetic (popPK) model of plasma concentrations in adult patients (OpTAT study)
Settings: both, human, plasma, oral

smilesEntry | clearance (mL/min)
CC(=O)Nc1cccc(-n2c(=O)n(C3CC3)c(=O)c3c(Nc4ccc(I)cc4F)n(C)c(=O)c(C)c32)c1 | 70

Values were extracted from paper PMC11201946.
